test system: BDF1 mice, P388 leukemia ip, median survival T/C; experiment: NCI In Vivo Anticancer Drug Screen. Data for tumor model P388 Leukemia (intraperitoneal) in B6D2F1 (BDF1) mice; settings: endpoint: median survival time; dose: 100.0 mg/kg/injection; schedule: Q01DX001 (ip); vehicle: saline sonified; higher = longer survival
Toxic doses and inconclusive results are not listed.
Known T/C of a selection of compounds
readout kind: T/C

INSERT INTO assay_data (compound, readout_kind, val) VALUES
  ('Cn1nc([N+](=O)[O-])sc1=N', 'T/C', '105 % of control'),
  ('CC1(C)N=C(N)Nc2nnc(-c3cccc(Cl)c3)n21', 'T/C', '105 % of control'),
  ('COc1ccc(C=Nc2cccc3ccccc23)cc1', 'T/C', '100 % of control'),
  ('CCOC(=O)C(C1=NC(C)(C)CC(C)O1)C1CCCCC1 (centres undefined)', 'T/C', '110 % of control');

----------
Listed here: items and their measured T/C.
system: BDF1 mice, P388 leukemia ip, median survival T/C; assay: NCI In Vivo Anticancer Drug Screen. Data for tumor model P388 Leukemia (intraperitoneal) in B6D2F1 (BDF1) mice; details: endpoint: median survival time; dose: 200.0 mg/kg/injection; schedule: Q01DX009 (ip); vehicle: saline with Tween-80; higher = longer survival
Inconclusive results and toxic doses are left out.
readout kind: T/C

INSERT INTO assay_data (compound, val) VALUES
  ('O=C(NC(=S)N1CC1)c1ccccc1', '104 % of control'),
  ('COc1ccc(C(=O)C(C)Br)c(OCc2ccccc2)c1OC (configuration not stated)', '95 % of control'),
  ('c1coc(CNc2ncnc3nc[nH]c23)c1', '86 % of control'),
  ('c1ccc(Sc2cccc3ccccc23)cc1', '104 % of control'),
  ('O=C(NCc1cnccn1)Oc1ccc([N+](=O)[O-])cc1', '86 % of control'),
  ('O=C1C(C2OC2c2ccccc2)CCCC1C1OC1c1ccccc1 (configuration not stated)', '91 % of control'),
  ('O=C(Nc1ccc(Cl)c(Cl)c1)ON1CCCCC1', '106 % of control'),
  ('O=C1Nc2ccc(Br)cc2C1=Nc1ccc(Cl)cc1', '118 % of control'),
  ('O=C(N=Nc1c(O)[nH]c2c(Cl)cc(Cl)cc12)c1ccccc1O', '96 % of control'),
  ('O=C1OC(N2Cc3ccccc3C2=O)c2ccccc21 (configuration not stated)', '94 % of control'),
  ('Cc1ccc(C)c(CCCC(=O)O)c1', '109 % of control'),
  ('COc1ccc(/C=C/C(=O)c2ccccc2)cc1', '98 % of control'),
  ('C=C(C)C(=O)NCCC(=O)Oc1ccc([N+](=O)[O-])cc1', '86 % of control'),
  ('COC(=O)CCCCC(=O)OC', '100 % of control'),
  ('CCC[S-].CCC[S-].[C-]#[O+].[C-]#[O+].[C-]#[O+].[C-]#[O+].[Rh].[Rh]', '90 % of control'),
  ('CN(C(=O)/C=C/C(=O)O)c1ccccc1', '113 % of control'),
  ('CN1NCc2cncnc21', '99 % of control'),
  ('S=c1nc2[nH]c3ccccc3c2n[nH]1', '96 % of control'),
  ('Cc1onc(-c2ccccc2)c1NC(=O)OC(C)c1cccnc1 (configuration not stated)', '119 % of control'),
  ('CCOC(=O)CC(C)(N)NC(N)=O (configuration not stated)', '105 % of control'),
  ('C/C(=C\c1ccc(OCc2ccccc2)cc1)C(=O)c1ccc(Cl)cc1', '92 % of control'),
  ('CCOC(=O)C1=C(O)c2c(sc(C)c2-c2ccccc2)N(S(=O)(=O)c2ccc(C)cc2)CC1', '109 % of control'),
  ('COc1ccc(/C=C2\SC(=S)N(CCCN3CCOCC3)C2=O)c(OC)c1', '95 % of control'),
  ('CCN(CC)CCC1(C(N)=O)Cc2ccccc2N(CC)c2ccccc21 (configuration not stated)', '100 % of control'),
  ('CCCCCC(=O)c1ccc(OCCCN2CCN(C(=O)OCC)CC2)cc1', '104 % of control'),
  ('COc1ccc2c(c1)C(=O)CC=C(C(=O)O)N2', '112 % of control'),
  ('COc1ccc(C(O)(CS(C)(=O)=O)c2cccs2)cc1 (configuration not stated)', '103 % of control'),
  ('CCCCc1ccc(C#N)nc1', '108 % of control'),
  ('CCC1C(=O)NC(=O)C1(C)c1ccccc1 (configuration not stated)', '120 % of control'),
  ('CCS(=O)(=O)OCCCl', '116 % of control'),
  ('O=C(O)c1oc2ccccc2c1CO', '105 % of control'),
  ('O=C(CN1CCCCC1)Nc1ccc(Br)cc1', '112 % of control'),
  ('O=C1OC(=Nc2cccc([N+](=O)[O-])c2)c2ccccc21', '97 % of control'),
  ('N#CC1c2ccccc2C=CN1C(=O)c1ccccc1 (configuration not stated)', '110 % of control'),
  ('COC(=O)C(C#N)=N/C=C/C=C1/N(C)c2ccccc2C1(C)C', '99 % of control'),
  ('COc1ccc(C2(C#N)CCCC2)cc1', '108 % of control'),
  ('COC1CC(O)C(O)C(C)O1 (configuration not stated)', '100 % of control'),
  ('ClCc1ccc2ccccc2n1', '122 % of control'),
  ('NC(=S)NCc1ccccc1C(O)c1ccccc1 (configuration not stated)', '101 % of control'),
  ('OCCOc1c(Cl)cc(Cl)cc1Cl', '100 % of control'),
  ('OC1c2cc(Cl)ccc2-c2c(Cl)cc(Cl)cc21 (configuration not stated)', '108 % of control'),
  ('CCOC(=O)c1c(C)cc(C)nc1[S][Sn]([Cl])([Cl])[S]c1nc(C)cc(C)c1C(=O)OCC', '106 % of control'),
  ('COc1ccc(C(=O)C(C)C=O)c(OCc2ccccc2)c1OC (configuration not stated)', '113 % of control'),
  ('O=C1OC(c2ccc(O)cc2)(c2ccc(Oc3ccccc3)cc2)c2ccccc21 (configuration not stated)', '105 % of control'),
  ('CC(C)NC(=O)C12CC3CC(CC(C3)C1)C2', '100 % of control'),
  ('CP12(OC(=O)c3ccccc31)OC(=O)c1ccccc12', '96 % of control'),
  ('CCOC(=O)c1ccccc1S(=O)(=O)c1ccccc1C(=O)OCC', '112 % of control'),
  ('CCOC(=O)C(Cc1ccccc1)P(=O)(OCC)OCC (configuration not stated)', '104 % of control'),
  ('Cc1ccc(S(=O)(=O)NC(=O)Oc2nc3cc(Cl)ccc3o2)cc1', '96 % of control'),
  ('NC1=NS(=O)(=O)N=C(N)C1=NNc1cccc(Cl)c1', '92 % of control'),
  ('Cc1ccc(C(=O)/C=C\c2ccccc2)cc1', '104 % of control'),
  ('CN(C)C(=O)Nc1ccc(Cc2ccc(NC(=O)N(C)C)cc2)cc1', '108 % of control');

Recorded values, source PubChem BioAssay AID328.
